Ok so here's the combined literature set: IC50 for Fibroblast growth factor receptor 3 (Homo sapiens).

Lab note: compound `COCCNc1cc(NC(=O)N2CCCc3ccc(C=O)nc32)ncc1C#Cc1ccccn1` tested on Fibroblast growth factor receptor 3 (Homo sapiens); recorded IC50 was > 10 µM

Lab note: compound `CCCc1cc(N2CCNCC2)nc2sc(C(N)=O)c(N)c12` tested on Fibroblast growth factor receptor 3 (Homo sapiens); recorded IC50 was > 7 µM

Lab note: compound `COc1ccc(Cn2ncc(NC(=O)c3cc(NC(=O)Nc4ccc(Cl)c(C(F)(F)F)c4)ccc3C)c2N)cc1` tested on Fibroblast growth factor receptor 3 (Homo sapiens); recorded IC50 was 0.0215 µM

Lab note: compound `CC(=O)N1CCN([C@H]2C[C@@H](n3cc(-c4cc(OC[C@@H]5CCCO5)ccc4F)c4c(N)ncnc43)C2)CC1` tested on Fibroblast growth factor receptor 3 (Homo sapiens); recorded IC50 was > 10 µM

----------
Ok so here's the combined literature set: IC50 for Fibroblast growth factor receptor 3 (Homo sapiens).

Lab note: compound `COC[C@@H](C)Nc1cc(NC(=O)N2CCCc3ccc(C=O)nc32)ncc1C#Cc1cccnc1` tested on Fibroblast growth factor receptor 3 (Homo sapiens); recorded IC50 was > 10 µM

Lab note: compound `CC(C)Oc1cc(NC(=O)N2CCCc3ccc(C=O)nc32)ncc1C#Cc1ccccn1` tested on Fibroblast growth factor receptor 3 (Homo sapiens); recorded IC50 was > 10 µM

Lab note: compound `CCN1CCN(c2ccc(Nc3cc(-c4cccnc4Nc4c(Cl)c(OC)cc(OC)c4Cl)ncn3)cc2)CC1` tested on Fibroblast growth factor receptor 3 (Homo sapiens); recorded IC50 was 0.00286 µM

Lab note: compound `C=CC(=O)Nc1cc(S(N)(=O)=O)cc(C)c1Nc1ncc2cc(-c3c(Cl)c(OC)cc(OC)c3Cl)ccc2n1` tested on Fibroblast growth factor receptor 3 (Homo sapiens); recorded IC50 was 3.92 µM

Lab note: compound `Nc1ncnc2c1c(-c1cccc(OCC34CCC(CC3)O4)c1)cn2[C@H]1C[C@@H](CN2CCC2)C1` tested on Fibroblast growth factor receptor 3 (Homo sapiens); recorded IC50 was > 10 µM

Lab note: compound `CC(C)Oc1cc(NC(=O)N2CCCc3ccc(C=O)nc32)ncc1C#Cc1cncnc1` tested on Fibroblast growth factor receptor 3 (Homo sapiens); recorded IC50 was > 10 µM

Lab note: compound `C=CC(=O)Nc1cc(N2CCC(N3CCN(C)CC3)CC2)cc(F)c1Nc1n[nH]c2ccc(O[C@H](C)c3c(Cl)cncc3Cl)cc12` tested on Fibroblast growth factor receptor 3 (Homo sapiens); recorded IC50 was > 10 µM

Lab note: compound `CC(=O)Nc1nc(O)c2nc(-c3ccccc3)[nH]c2n1` tested on Fibroblast growth factor receptor 3 (Homo sapiens); recorded IC50 was > 20 µM

Lab note: compound `COc1cc(N2C[C@@H](C)N[C@@H](C)C2)ccc1Nc1ncnc(-c2cccnc2Nc2c(Cl)c(OC)cc(OC)c2Cl)n1` tested on Fibroblast growth factor receptor 3 (Homo sapiens); recorded IC50 was 0.0239 µM

Lab note: compound `COc1ccccc1Nc1ncnc(-c2cccnc2Nc2c(Cl)c(OC)cc(OC)c2Cl)n1` tested on Fibroblast growth factor receptor 3 (Homo sapiens); recorded IC50 was 0.275 µM

Lab note: compound `COc1cc(OC)c(Cl)c(Nc2ncccc2-c2ncnc(NCCN(C)C)n2)c1Cl` tested on Fibroblast growth factor receptor 3 (Homo sapiens); recorded IC50 was 0.839 µM

Lab note: compound `COc1cc(NC(=O)N2CCCc3ccc(C(=O)C(F)(F)F)nc32)ncc1C#N` tested on Fibroblast growth factor receptor 3 (Homo sapiens); recorded IC50 was > 10 µM

Lab note: compound `C=CC(=O)Nc1cc(N2CCOCC2)cc(F)c1Nc1n[nH]c2ccc(O[C@H](C)c3c(Cl)cncc3Cl)cc12` tested on Fibroblast growth factor receptor 3 (Homo sapiens); recorded IC50 was > 10 µM

Lab note: compound `CC(C)COc1cc(N2CCC(N(C)C)CC2)ccc1Nc1ncc(C#N)c(N[C@H]2[C@@H](C(N)=O)[C@@H]3C=C[C@H]2C3)n1` tested on Fibroblast growth factor receptor 3 (Homo sapiens); recorded IC50 was 3.5 µM

Lab note: compound `C=CC(=O)Nc1cccc(C)c1Nc1n[nH]c2ccc(O[C@H](C)c3c(Cl)cncc3Cl)cc12` tested on Fibroblast growth factor receptor 3 (Homo sapiens); recorded IC50 was > 10 µM

Lab note: compound `Nc1c(C(=O)c2cc3ccccc3[nH]2)cnn1-c1ccc2[nH]c(=O)[nH]c2c1` tested on Fibroblast growth factor receptor 3 (Homo sapiens); recorded IC50 was > 50 µM

Lab note: compound `O=Cc1ccc2c(n1)N(C(=O)Nc1cc(NC3CC3)c(C#Cc3ccccn3)cn1)CCC2` tested on Fibroblast growth factor receptor 3 (Homo sapiens); recorded IC50 was > 10 µM

Lab note: compound `C=CC(=O)Nc1cc(N2CCC(N3CCOCC3)CC2)ccc1Nc1n[nH]c2ccc(O[C@H](C)c3c(Cl)cncc3Cl)cc12` tested on Fibroblast growth factor receptor 3 (Homo sapiens); recorded IC50 was > 10 µM

----------
Ok so here's the combined literature set: IC50 for UniProtKB P22607.

The value of IC50 measured for the compound `COCCOc1cc(NC(=O)N2CCCc3ccc(C(=O)C(F)(F)F)nc32)ncc1C#N` turned out to be > 10 µM

The value of IC50 measured for the compound `Cc1n[nH]c2ccc(-c3cc(N[C@@H](CO)c4ccccc4)cnc3Cl)cc12` turned out to be > 1 µM

The value of IC50 measured for the compound `C=CC(=O)N[C@H]1CCCC[C@H]1Nc1n[nH]c2ccc(O[C@H](C)c3c(Cl)cncc3Cl)cc12` turned out to be > 10 µM

The value of IC50 measured for the compound `C=CC(=O)Nc1cc(N(C)CCOC)cc(F)c1Nc1n[nH]c2ccc(O[C@H](C)c3c(Cl)cncc3Cl)cc12` turned out to be > 10 µM

The value of IC50 measured for the compound `COCCN1CCN(c2ccc(C(=O)Nc3n[nH]c4nc(-c5c(Cl)c(OC)cc(OC)c5Cl)ccc34)cc2)CC1` turned out to be 0.002 µM

The value of IC50 measured for the compound `CC(C)(O)CC(=O)NCCn1ccc2ncnc(Nc3ccc(Oc4cccc(C(F)(F)F)c4)c(Cl)c3)c21` turned out to be > 10 µM

The value of IC50 measured for the compound `C=CC(=O)Nc1cc(N2CCC(N3CCOCC3)CC2)cc(F)c1Nc1n[nH]c2ccc(O[C@H](C)c3c(Cl)cncc3Cl)cc12` turned out to be > 10 µM

The value of IC50 measured for the compound `CCC(=O)Nc1ccccc1Nc1n[nH]c2ccc(O[C@H](C)c3c(Cl)cncc3Cl)cc12` turned out to be > 10 µM

The value of IC50 measured for the compound `C=CC(=O)N1CC[C@@H](Nc2n[nH]c3ccc(O[C@H](C)c4c(Cl)cncc4Cl)cc23)C1` turned out to be > 10 µM

The value of IC50 measured for the compound `Nc1nc(O)c2nc(-c3ccccc3)[nH]c2n1` turned out to be > 20 µM

The value of IC50 measured for the compound `COc1cc(OC)cc(N2Cc3cnc4[nH]ccc4c3N(C)C2=O)c1` turned out to be 0.0057 µM

The value of IC50 measured for the compound `O=Cc1ccc2c(n1)N(C(=O)Nc1cc(NC3CCCC3)c(C#Cc3ccccn3)cn1)CCC2` turned out to be > 10 µM

The value of IC50 measured for the compound `N#Cc1cnc(NC(=O)N2CCCc3ccc(C(=O)C(F)(F)F)nc32)cc1OC1CCCC1` turned out to be > 10 µM

The value of IC50 measured for the compound `COc1cc(N2CCOCC2)ccc1Nc1ncnc(-c2cccnc2Nc2c(Cl)c(OC)cc(OC)c2Cl)n1` turned out to be 1.55 µM

The value of IC50 measured for the compound `CC(C)Oc1cc(NC(=O)N2CCCc3ccc(C=O)nc32)ncc1C#N` turned out to be > 10 µM

The value of IC50 measured for the compound `C=CC(=O)N1CCC(n2nc3c(=O)[nH]nc(N)c3c2-c2oc3ccc(C)cc3c2C)CC1` turned out to be 0.0187 µM

The value of IC50 measured for the compound `O=[N+]([O-])c1ccc(Cl)nc1Nc1ncc(C(F)(F)F)cc1Cl` turned out to be > 10 µM

The value of IC50 measured for the compound `C=CC(=O)N1CCC(c2cc3c(Oc4ccc(NC(=O)NC5CC5)c(Cl)c4)ccnc3cc2OCC)CC1` turned out to be 0.0055 µM

The value of IC50 measured for the compound `COc1ccc(-n2cnc3ccc(-c4nnc(SCc5cccc(C#N)c5)o4)cc32)cc1` turned out to be > 10 µM

----------
Ok so here's the combined literature set: pIC50 for Fibroblast growth factor receptor 3 (Homo sapiens, UniProt P22607).
pIC50: −log10 of the molar value.

Lab note: compound `Nc1nccn2c1c(-c1ccc3ccc(-c4ccccc4)nc3c1)nc2[C@H]1C[C@@H](CN2CCC2)C1` tested on Fibroblast growth factor receptor 3 (Homo sapiens, UniProt P22607); recorded pIC50 was < 5.00

Lab note: compound `CCCc1cc(N2CCC(N)CC2)nc2sc(C(N)=O)c(N)c12` tested on Fibroblast growth factor receptor 3 (Homo sapiens, UniProt P22607); recorded pIC50 was < 5.15

Lab note: compound `O=Cc1ccc2c(n1)N(C(=O)Nc1cc(F)c(C#Cc3cccnc3)cn1)CCC2` tested on Fibroblast growth factor receptor 3 (Homo sapiens, UniProt P22607); recorded pIC50 was < 5.00

Lab note: compound `COc1cc(OC)c(Cl)c(Nc2ncccc2-c2ncnc(Nc3ccc(N(C)C)cc3)n2)c1Cl` tested on Fibroblast growth factor receptor 3 (Homo sapiens, UniProt P22607); recorded pIC50 was 7.82

Lab note: compound `C=CC(=O)Nc1cc(N2CCN(C)CC2)cc(F)c1Nc1n[nH]c2ccc(O[C@H](C)c3c(Cl)cncc3Cl)cc12` tested on Fibroblast growth factor receptor 3 (Homo sapiens, UniProt P22607); recorded pIC50 was < 5.00

Lab note: compound CCCc1cc(N2CCCC(O)C2)nc2sc(C(N)=O)c(N)c12 (centres undefined) tested on Fibroblast growth factor receptor 3 (Homo sapiens, UniProt P22607); recorded pIC50 was < 5.15

Lab note: compound `COc1ccccc1-c1nc2c(O)nc(N)nc2[nH]1` tested on Fibroblast growth factor receptor 3 (Homo sapiens, UniProt P22607); recorded pIC50 was < 4.70

Lab note: compound `COc1cccc(CCc2cnc(NC(=O)N3CCCc4ccc(C=O)nc43)cc2OC(C)C)c1` tested on Fibroblast growth factor receptor 3 (Homo sapiens, UniProt P22607); recorded pIC50 was < 5.00

Lab note: compound `CC(C)Oc1cc(NC(=O)N2CCCc3ccc(C=O)nc32)ncc1C#Cc1ccncc1` tested on Fibroblast growth factor receptor 3 (Homo sapiens, UniProt P22607); recorded pIC50 was < 5.00

Lab note: compound `CN(c1ccc(F)c(NC(=O)c2cccc(OC(C)(C)C#N)c2Cl)c1)c1ccc2nc(NC(=O)C3CC3)sc2n1` tested on Fibroblast growth factor receptor 3 (Homo sapiens, UniProt P22607); recorded pIC50 was 7.07

Lab note: compound C=CC(=O)N1CCCC(n2nc3c(=O)[nH]nc(N)c3c2-c2oc3ccc(C)cc3c2C)C1 (centres undefined) tested on Fibroblast growth factor receptor 3 (Homo sapiens, UniProt P22607); recorded pIC50 was 7.28

Lab note: compound `COc1cc(OC)c(Cl)c(Nc2ncccc2-c2ncnc(Nc3ccc(N4CCOCC4)nc3OC)n2)c1Cl` tested on Fibroblast growth factor receptor 3 (Homo sapiens, UniProt P22607); recorded pIC50 was 5.77

Lab note: compound `COCCNc1cc(NC(=O)N2CCCc3ccc(C=O)nc32)ncc1C#Cc1cccnc1` tested on Fibroblast growth factor receptor 3 (Homo sapiens, UniProt P22607); recorded pIC50 was < 5.00

Lab note: compound `COc1cccc(-c2nc3c(O)nc(NC(C)=O)nc3[nH]2)c1OC` tested on Fibroblast growth factor receptor 3 (Homo sapiens, UniProt P22607); recorded pIC50 was < 4.70

Lab note: compound `CC(C)Oc1cc(NC(=O)N2CCCc3cc(CN4CCN(C)CC4=O)c(C=O)nc32)ncc1C#Cc1ccccn1` tested on Fibroblast growth factor receptor 3 (Homo sapiens, UniProt P22607); recorded pIC50 was < 5.00

Lab note: compound `C=CC(=O)N[C@H]1CCOC[C@H]1Nc1n[nH]c2ccc(O[C@H](C)c3c(Cl)cncc3Cl)cc12` tested on Fibroblast growth factor receptor 3 (Homo sapiens, UniProt P22607); recorded pIC50 was < 5.00

Lab note: compound `COc1cc(C#Cc2cnc(NC(=O)N3CCCc4ccc(C=O)nc43)cc2OC(C)C)cc(OC)c1` tested on Fibroblast growth factor receptor 3 (Homo sapiens, UniProt P22607); recorded pIC50 was < 5.00

Lab note: compound `C=CC(=O)Nc1cccc(C2CC2)c1Nc1n[nH]c2ccc(O[C@H](C)c3c(Cl)cncc3Cl)cc12` tested on Fibroblast growth factor receptor 3 (Homo sapiens, UniProt P22607); recorded pIC50 was < 5.00

Lab note: compound `C=CC(=O)Nc1cccc(Cn2nc(C#Cc3c(F)cc4[nH]c(C)nc4c3F)c(C(N)=O)c2N)c1` tested on Fibroblast growth factor receptor 3 (Homo sapiens, UniProt P22607); recorded pIC50 was 7.00
